Form field: SPOT peptide array binding signal intensity (one value per entry).
molecular target: SpAbp1-D1; test: SPOT peptide array binding signal intensity (averaged, normalized) (arbitrary units (background-subtracted, floor 0; scale differs between SH3 domains)); higher = stronger binding of the SH3 domain to the peptide
Number, no unit, nothing else.

binder	assay.value
PLRRTVMSLPGNHDI	671
RKNRAPPQRPRFNRE	634

Please examine the following record next.
Identify measured SPOT peptide array binding signal intensity corresponding to "LRWRHKFFLPAIAAI"
166
